- Study target: Fibroblast growth factor 2 (Homo sapiens) (UniProt P09038)
- Sequence (P09038 whole entry, looked up): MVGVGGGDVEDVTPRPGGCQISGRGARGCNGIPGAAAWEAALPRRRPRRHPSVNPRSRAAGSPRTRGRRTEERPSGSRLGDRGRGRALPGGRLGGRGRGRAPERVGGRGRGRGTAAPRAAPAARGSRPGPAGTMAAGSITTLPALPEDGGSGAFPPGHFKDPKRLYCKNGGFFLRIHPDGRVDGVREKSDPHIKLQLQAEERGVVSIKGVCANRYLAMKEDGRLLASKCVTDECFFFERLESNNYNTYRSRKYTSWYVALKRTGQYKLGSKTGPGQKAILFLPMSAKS
- Assay overview: FGF2 binders on small-molecule microarrays, primary screen, biochemical, small-molecule microarray, 635/667 nm fluorescence (AID 1133)
- Condition description: small-molecule microarray binding, FGF2, fluorescence 635/667; higher = more signal
Reported property: composite z-score
One number for each entry.

Use the examples below as a reference point.
# Molecule, Measured value
records = [
    ("COCC(=C=CC[C@@H](O)c1ccccc1OCCO)C[C@@H](O)c1cc(Cl)cc(Cl)c1O", 1.21),
    ("COC(=O)[C@@]1(Cc2ccccc2)[C@H]2c3cc(C(=O)N4CCCC4)n(Cc4cccc5ccccc45)c3C[C@H]2CN1C(=O)c1ccccc1", -0.0086),
    ("O=C1c2ccccc2[C@](Cc2ccccc2I)(C(=O)NC2CC2)[C@H](c2ccc(CO)cc2)N1Cc1ccccc1", 1.16),
    ("CCCCCN1CC=CC23O[C@@H]4/C=C\\CCCOC(=O)C4[C@H]2C(=O)N(C(CO)C(C)C)[C@@H]3C1=O (stereo not given in full)", -0.603),
]

For the next question, use this molecule.
Prompt: Quick one: composite z-score of C=CCOC(=O)[C@H]1[C@@H]2C(=O)O[C@@H](c3ccccc3)[C@@H](c3ccccc3)N2[C@@H](c2ccc(OCCOC(=O)[C@H]3C[C@H]4C(=O)N5CCC[C@H]5C(=O)N4[C@H]3c3ccc(O)cc3)cc2)[C@]12C(=O)Nc1ccccc12 ?
Response: 1.96

---

- Study target: Dihydroorotate dehydrogenase (quinone), mitochondrial (Plasmodium falciparum (isolate 3D7)) (UniProt Q08210)
- Sequence (Q08210 whole entry, looked up): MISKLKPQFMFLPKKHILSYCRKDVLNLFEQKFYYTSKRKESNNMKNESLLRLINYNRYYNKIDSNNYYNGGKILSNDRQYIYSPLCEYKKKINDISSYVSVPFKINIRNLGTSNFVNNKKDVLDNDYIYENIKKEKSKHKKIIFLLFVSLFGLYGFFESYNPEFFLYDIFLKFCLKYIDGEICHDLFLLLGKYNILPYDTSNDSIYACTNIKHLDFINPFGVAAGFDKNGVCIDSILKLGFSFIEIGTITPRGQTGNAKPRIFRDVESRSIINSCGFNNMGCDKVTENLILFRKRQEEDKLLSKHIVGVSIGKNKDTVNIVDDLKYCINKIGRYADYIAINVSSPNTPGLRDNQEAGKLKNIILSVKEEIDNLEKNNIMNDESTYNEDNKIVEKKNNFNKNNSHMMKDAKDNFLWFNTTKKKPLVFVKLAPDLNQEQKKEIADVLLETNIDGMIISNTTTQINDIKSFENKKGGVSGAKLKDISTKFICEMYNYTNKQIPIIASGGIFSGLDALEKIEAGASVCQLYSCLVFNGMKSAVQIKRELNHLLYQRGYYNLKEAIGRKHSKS
- Assay overview: PfDHODH enzyme inhibitors, primary screen, biochemical, C-terminal His tag, absorbance 600 nm (AID 1175);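 further: recombinant parasite enzyme with a five histidine tag at its C terminus; test concentration not given here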
- Condition description: DCIP absorbance 600 nm, called active from +8 up or from −8 down
Activity calls are given as the source filed them.
Response enum: active, inactive

Completed entries (count: 4):
# Compound, Class assignment
rows = [
    ("C[C@@H]1ON(c2cccc(C(=O)OC(C)(C)C)c2)[C@H](c2ccc(Br)cc2)[C@H]1C(=O)N1C(=O)OC[C@H]1Cc1ccccc1", "inactive"),
    ("[N-]=[N+]=NCc1ccccc1[C@@H]1OC(c2ccc(OCCCO)cc2)=N[C@]1(Cc1ccccc1N=[N+]=[N-])C(=O)N1CCOCC1", "inactive"),
    ("C=CCN(Cc1ccccc1)C(=O)C(c1cccs1)N(CCOCCO)C(=O)/C=C\\C(=O)O (centres undefined)", "inactive"),
    ("CCCCN1CC=CC23O[C@@H]4C=CCOC(=O)[C@@H]4[C@H]2C(=O)N(CCCCCO)[C@@H]3C1=O (some centres undefined)", "inactive"),
]

Prompt: Recorded call for COc1ccc(CCN2C(=O)[C@@]3(Cc4ccccc42)c2ccccc2C(=O)N(Cc2ccccc2C(F)(F)F)[C@H]3c2ccc(CO)cc2)cc1 ?
Response: active

Prompt: Write down the call the test reported for this compound. Item: CCOC(=O)[C@H]1CC=C2CC1C(=O)N1CCC[C@@H]1[C@@H]2O[Si](C)(C)C(C)(C)C (some centres undefined)
Response: inactive

Prompt: Assay outcome for CC(=O)n1cc(C(O)C2C=CC3C(=O)N(C)C(=O)C3N2Nc2ccccc2)c2ccccc21 (centres undefined) : what was it?
Response: inactive

Prompt: Hi team, can someone confirm the assay call for COc1ccc(C(=O)O[C@H]2CC[C@]3(C)C4=C(CCC3C2(C)C)[C@]2(C)CC[C@H]([C@H](C)CCCC(C)C)[C@@]2(C)CC4)cc1 (some centres undefined) ?
Response: inactive

Prompt: What classification did CCOC(=O)C1=CCC(c2ccc(C)cc2)N(S(=O)(=O)c2ccc(C)cc2)C1 (centres undefined) end up with in this test?
Response: inactive

---

- System: Chordin-like protein 2 (CHRDL2)
- Assay overview: CHRDL2 small-molecule binders, primary screen, biochemical, small-molecule microarray, 635 nm fluorescence (AID 1126);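 further: printed compound slides probed with Chrdl2 protein at 4 µg/mL for 1 h at 4 C; score merges 667 nm emission intensity with signal to noise over three replicate slides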
- Condition description: small-molecule microarray binding, fluorescence 635 nm; higher = more signal
Cut-off 0.06 on composite z-score, inclusive. At or above means Yes; below means No.

Past entries and their recorded results:
# Compound, Class assignment
data = [
    ("CC(CO)N1C(=O)[C@@H]2C3C(=O)OCCC/C=C\\[C@H]3OC23C=CCN(c2ccc4ccccc4c2)C(=O)[C@@H]13 (some centres not stated)", "No"),
    ("C=CC[C@]1(C(=O)N2CCCCC2)N=C(c2ccc(OCCCO)cc2)O[C@H]1c1ccccc1", "Yes"),
    ("COC(=O)C=C(CC(O)c1cccc(Cl)c1)OC (configuration not stated)", "Yes"),
    ("C=CC[C@]1(C(=O)NCCCOC)N=C(c2ccc(OCCCO)cc2)O[C@H]1c1ccccc1N=[N+]=[N-]", "No"),
]

Prompt: Assess whether reported composite z-score for COCCOC(=O)N1C(=O)[C@@]2(c3cc(C#Cc4ccc(OC)cc4)ccc31)[C@H](c1ccccc1OCCO)N1[C@H](c3ccccc3)[C@H](c3ccccc3)OC(=O)[C@H]1[C@@H]2C(=O)N1CCN(c2ncccn2)CC1 sits at 0.06 or higher.
Response: No

Prompt: Is reported composite z-score greater than or equal to 0.06 here: CC(C)OC(=O)C=C1C[C@@H](c2ccccc2C(F)(F)F)O[C@@H](c2ccccc2C(F)(F)F)O1
Response: No

Prompt: Please indicate if the recorded composite z-score for COCCOC(=O)N1C(=O)[C@@]2(c3cc(C#CC4=CCCCC4)ccc31)[C@H](C(=O)N1CCc3cc(OC)c(OC)cc3C1)[C@H]1C(=O)O[C@H](c3ccccc3)[C@H](c3ccccc3)N1[C@@H]2c1ccc(OCCO)cc1 meets or exceeds 0.06.
Response: Yes

---

- Assay overview: basal RPMI8226 viability, no added stimulus, profiling panel, cell-based, calcein-AM fluorescence, 48 h, PK04 Diversity Set (AID 1166);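 further: cells grown under basal conditions without added stimulus; test concentration not given here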
- Condition description: RPMI8226 myeloma viability, higher = more signal
Reported property: z-score
Numbers only.

# Structure, Measured value
rows = [
    ("C=C(CCCC)C(=O)CC[C@H](OC(=O)c1cccnc1)c1ccccc1OCCO", -1.65),
    ("O=C1c2ccccc2[C@](Cc2ccccc2I)(C(=O)NC2CC2)[C@H](c2ccc(CO)cc2)N1Cc1ccccc1", -0.253),
]

Prompt: Please give the measured z-score for this compound: CN1C(=O)[C@]2(Cc3ccccc3)N=C(c3ccc(OCCCO)cc3)O[C@@H]2c2ccccc21
Response: -4.34

---

- Assay overview: osmotic lysis modulators in infected erythrocytes, primary screen, PSAC antagonist project, cell-based, P. falciparum Indochina, OD700, 3 h (AID 1156)
- Condition description: higher = more signal, called active from +8 up or from −8 down
The threshold is inclusive: z-score of exactly 1 counts as t; values below receive f.

# example entries with known answers
# Compound, Class assignment
measured = [
    ("CCOc1cc(C(O)C2C=CC3C(=O)N(c4ccccc4)C(=O)C3N2Nc2ccccc2)ccc1O (configuration not stated)", "f"),
    ("COc1ccc(C(=O)Nc2ccc(CN3C(=O)[C@@]4(O[C@@H](CC(=O)N5CCC[C@H]5CO)[C@H]([Si](C)(C)c5ccc(OC)cc5)[C@H]4C)c4ccccc43)cc2)cc1", "f"),
    ("CCCCC(=C=CC[C@@H](O)c1ccccc1OCCO)CCO", "f"),
]

Prompt: Reported z-score reaches at least 1 for [N-]=[N+]=NCc1ccccc1[C@H]1OC(c2ccc(OCCCO)cc2)=N[C@@]1(Cc1ccccc1)C(=O)NCc1ccccc1 ?
Response: t

Prompt: Could you please find out whether Cc1ccc(S[C@]2(C(=O)NCCN3CCOCC3)CC(=O)N(Cc3ccccc3Cl)[C@@H]2c2ccc(CO)cc2)cc1 has z-score that meets 1 or exceeds it?
Response: t

Prompt: Given C=C(COC)/C(=C/C[C@H](OC(=O)c1ccncc1)c1ccc(OCCO)cc1)c1cnc2ccccc2c1 , state whether its z-score is at least 1.
Response: t

Prompt: Given C=CCNC(=O)[C@@H]1[C@H]2C(=O)O[C@H](c3ccccc3)[C@H](c3ccccc3)N2[C@H](c2ccccc2OCCO)[C@@]12C(=O)N(C(=O)OCCOC)c1ccc(C#CCNC(N)=O)cc12 , state whether its z-score is at least 1.
Response: t

---

- Study target: Torsin-1A-interacting protein 2 (Homo sapiens) (UniProt Q8NFQ8)
- Sequence (Q8NFQ8 whole entry, looked up): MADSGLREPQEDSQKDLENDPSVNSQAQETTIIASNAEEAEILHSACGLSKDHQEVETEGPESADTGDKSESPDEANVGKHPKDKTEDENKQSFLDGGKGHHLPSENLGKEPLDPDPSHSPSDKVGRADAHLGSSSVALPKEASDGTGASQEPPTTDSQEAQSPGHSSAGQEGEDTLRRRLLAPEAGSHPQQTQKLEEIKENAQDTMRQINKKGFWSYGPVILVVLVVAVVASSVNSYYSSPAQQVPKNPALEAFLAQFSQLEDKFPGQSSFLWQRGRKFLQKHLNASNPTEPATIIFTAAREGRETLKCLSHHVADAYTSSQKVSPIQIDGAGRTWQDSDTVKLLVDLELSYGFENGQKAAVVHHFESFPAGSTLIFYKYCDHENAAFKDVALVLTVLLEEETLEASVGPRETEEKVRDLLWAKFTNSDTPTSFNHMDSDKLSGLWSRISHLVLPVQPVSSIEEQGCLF
- Assay overview: LULL1 binders on small-molecule microarray, primary screen, cell lysate, human LULL1 lysate, 635/667 nm fluorescence (AID 1092);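 further: probe is lysate of COS7 cells overexpressing human LULL1; score merges per-feature 667 nm fluorescence with signal-to-noise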
- Condition description: hLULL1 lysate binding, 635 nm fluorescence, higher = more signal
Reported property: composite z-score
Numbers only.

Recorded results for 4 compounds are shown here.
# Compound, composite z-score
data = [
    ("[N-]=[N+]=Nc1ccccc1C[C@]1(C(=O)NCC(O)CO)N=C(c2ccc(OCCCO)cc2)O[C@H]1c1ccccc1N=[N+]=[N-] (stereo not given in full)", 2.98),
    ("COC(=O)[C@@]1(Cc2ccc(F)cc2)[C@H]2c3cc(C(=O)N4CCCC4)n(Cc4cc(C)n(C)n4)c3C[C@H]2CN1C(=O)c1ccccc1", 3.75),
    ("OC([C@@H]1CC(c2ccccc2)=NO1)[C@H]1CC(c2ccccc2)=NO1 (stereo not given in full)", 0.299),
    ("CC1CC/C=C\\[C@H]2OC34C=CCN(c5ccc(Cl)cc5)C(=O)[C@H]3N(CCO)C(=O)[C@]4(C)C2C(=O)O1 (stereo not given in full)", 0.139),
]

Please examine the following record next.
Prompt: Param item = CO[C@H]1O[C@H](CO)[C@@H](OC(=O)Nc2ccc(Br)cc2)[C@H](OC(=O)c2cc3ccccc3[nH]2)[C@H]1OC(=O)c1cc2ccccc2[nH]1 ; retrieve measured composite z-score.
Response: 2.48
